log10 of solubility at 10 min overview
Test: Water solubility test
Type: physicochemical
Conditions: water, thermodynamic from solid
Description: The solubility of prenylquercetins and their glucosides were determined based on the previously reported method with some modifications. Briefly, each compound (4 mg) was dissolved in 1 mL of distilled water at room temperature followed by sonication for 10 min and centrifugation at 3600 rpm for 5 min at room temperature. Then the concentrations of the compounds in the supernatant were measured based on their peak areas utilizing calibration curves determined by the HPLC of authentic samples.
All values: log10 solubility at 10 min [µg/mL].

Below, each entry is followed by its recorded log10 of solubility at 10 min result.
CC(C)=CCc1c(O[C@@H]2O[C@H](CO)[C@@H](O)[C@H](O)[C@H]2O)cc(O)c2c(=O)c(O)c(-c3ccc(O)c(O)c3)oc12
2.70
CC(C)=CCc1c(O)cc(O)c2c(=O)c(O[C@@H]3O[C@H](CO)[C@@H](O)[C@H](O)[C@H]3O)c(-c3ccc(O)c(O)c3)oc12
2.59
CC(C)=CCc1cc(O[C@@H]2O[C@H](CO)[C@@H](O)[C@H](O)[C@H]2O)c(O)cc1-c1oc2cc(O)cc(O)c2c(=O)c1O
3.56

Entry CC(C)=CCc1c(O)cc(O)c2c(=O)c(O)c(-c3ccc(O)c(O)c3)oc12 ; log10 of solubility at 10 min = 1.11

Entry CC(C)=CCc1cc(O)c(O)cc1-c1oc2cc(O)cc(O)c2c(=O)c1O ; log10 of solubility at 10 min = 1.80

* * *

Assay: Water solubility test
Type: physicochemical
Settings: water, thermodynamic from solid
Method: The solubility of prenylquercetins and their glucosides were determined based on the previously reported method with some modifications. Briefly, each compound (4 mg) was dissolved in 1 mL of distilled water at room temperature followed by sonication for 10 min and centrifugation at 3600 rpm for 5 min at room temperature. Then the concentrations of the compounds in the supernatant were measured based on their peak areas utilizing calibration curves determined by the HPLC of authentic samples.
solubility at 10 min overview
Enter your answer as a number in µg/mL; do not include the unit.

Entry CC(C)=CCc1cc(O)c(O)cc1-c1oc2c(CC=C(C)C)c(O[C@@H]3O[C@H](CO)[C@@H](O)[C@H](O)[C@H]3O)cc(O)c2c(=O)c1O ; solubility at 10 min = 613

Entry CC(C)=CCc1cc(O)c(O)cc1-c1oc2c(CC=C(C)C)c(O)cc(O)c2c(=O)c1O ; solubility at 10 min = 20

Entry CC(C)=CCc1cc(O)c(O)cc1-c1oc2cc(O[C@@H]3O[C@H](CO)[C@@H](O)[C@H](O)[C@H]3O)cc(O)c2c(=O)c1O ; solubility at 10 min = 1980

Data origin: paper PMC7037548
